Measured values drawn from patent US20250289893A1 for this set.

# Fluorescence Intensity Geomean (normalized to background) annotations
Target: T1, human CD1a expressed on cells (human, UniProt P06126 17-327; P61769 21-119)
T1 construct: also called HEK - CD1a; C1R - CD1a
Assay: flow cytometry, HEK-293 cells, 0.1 µg/ml antibody
Measured Metric: Fluorescence Intensity Geomean (normalized to background) (fold over background)

>>> value("110 (VR12112) (antibody, V domains shown, also called OX110; antibody 110) VH: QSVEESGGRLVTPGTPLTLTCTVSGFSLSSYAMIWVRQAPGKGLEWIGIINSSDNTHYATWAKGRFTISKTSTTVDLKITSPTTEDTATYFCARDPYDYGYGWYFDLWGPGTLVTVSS VL: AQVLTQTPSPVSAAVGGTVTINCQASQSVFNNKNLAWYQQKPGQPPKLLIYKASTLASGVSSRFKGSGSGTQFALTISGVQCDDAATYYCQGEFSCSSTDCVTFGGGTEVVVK")
20.2
>>> value("77A (VR11851) (antibody, V domains shown, also called OX77a; antibody 77a) VH: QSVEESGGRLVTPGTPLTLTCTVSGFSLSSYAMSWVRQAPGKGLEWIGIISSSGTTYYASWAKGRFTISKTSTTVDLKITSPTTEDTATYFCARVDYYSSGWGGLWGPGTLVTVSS VL: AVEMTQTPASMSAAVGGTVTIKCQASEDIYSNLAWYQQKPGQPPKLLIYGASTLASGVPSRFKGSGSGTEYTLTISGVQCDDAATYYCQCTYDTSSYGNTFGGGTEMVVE")
43.8
>>> value("116 (VR12117) (antibody, V domains shown, also called OX116) VH: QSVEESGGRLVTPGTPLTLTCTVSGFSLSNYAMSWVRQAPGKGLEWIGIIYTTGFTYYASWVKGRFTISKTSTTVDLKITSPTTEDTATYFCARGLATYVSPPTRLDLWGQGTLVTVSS VL: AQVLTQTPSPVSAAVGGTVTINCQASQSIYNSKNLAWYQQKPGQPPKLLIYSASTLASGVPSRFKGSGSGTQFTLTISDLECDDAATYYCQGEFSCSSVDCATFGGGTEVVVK")
26.7
>>> value("111 (VR12113) (antibody, V domains shown, also called OX111) VH: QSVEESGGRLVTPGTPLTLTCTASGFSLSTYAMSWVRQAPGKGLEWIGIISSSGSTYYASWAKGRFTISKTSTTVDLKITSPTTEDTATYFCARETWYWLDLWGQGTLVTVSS VL: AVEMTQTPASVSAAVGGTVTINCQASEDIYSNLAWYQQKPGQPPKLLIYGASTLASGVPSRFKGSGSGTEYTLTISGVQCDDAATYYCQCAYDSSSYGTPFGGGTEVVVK")
23.1
>>> value("16 (VR11834) (antibody, V domains shown, also called OX16; antibody 16) VH: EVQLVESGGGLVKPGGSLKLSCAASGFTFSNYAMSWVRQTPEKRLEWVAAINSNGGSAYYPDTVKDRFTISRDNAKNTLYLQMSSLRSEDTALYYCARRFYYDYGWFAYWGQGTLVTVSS VL: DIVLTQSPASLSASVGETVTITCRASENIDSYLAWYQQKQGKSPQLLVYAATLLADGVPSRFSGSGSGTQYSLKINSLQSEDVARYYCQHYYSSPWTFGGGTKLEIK")
12.9
